Protocol summary: Inhibition of rat intestinal rat alpha-glucosidase

{"Compound": "C=CC(C)(C)[C@@]12C[C@@H]3C(=O)N4[C@H](C[C@@]5(C(C)(C)C=C)c6ccccc6N[C@@H]45)C(=O)N3[C@@H]1Nc1ccccc12", "Output unit": "µM", "IC50": 743}
{"Compound": "CC1(C)c2[nH]c3cc(Cl)c(Cl)cc3c2C[C@@]23CN4CCC[C@]4(C[C@@H]12)C(=O)N3", "Output unit": "µM", "IC50": 459}
{"Compound": "C[C@H]1O[C@H](O[C@H]2[C@H](O)[C@@H](O)[C@@H](O[C@H]3[C@H](O)[C@@H](O)C(O)O[C@@H]3CO)O[C@@H]2CO)[C@H](O)[C@@H](O)[C@@H]1N[C@H]1C=C(CO)[C@@H](O)[C@H](O)[C@H]1O (stereo partly drawn) [ACARBOSE]", "Output unit": "µM", "IC50": 151}

* * *

System tested: Tyrosine-protein phosphatase non-receptor type 1 (Homo sapiens, UniProt P18031)
Sequence (P18031 whole entry): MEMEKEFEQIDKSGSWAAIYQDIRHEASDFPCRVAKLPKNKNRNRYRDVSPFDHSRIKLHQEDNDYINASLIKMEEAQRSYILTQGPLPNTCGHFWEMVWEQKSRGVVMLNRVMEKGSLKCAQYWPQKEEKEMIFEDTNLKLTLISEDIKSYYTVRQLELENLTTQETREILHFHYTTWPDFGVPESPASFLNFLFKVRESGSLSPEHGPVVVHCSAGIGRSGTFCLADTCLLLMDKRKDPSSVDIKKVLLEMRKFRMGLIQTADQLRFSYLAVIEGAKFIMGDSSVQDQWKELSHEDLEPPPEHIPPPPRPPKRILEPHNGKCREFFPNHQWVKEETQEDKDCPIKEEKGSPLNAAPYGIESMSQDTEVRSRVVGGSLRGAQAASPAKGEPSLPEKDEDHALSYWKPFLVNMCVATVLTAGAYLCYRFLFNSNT
pIC50: −log10 of the molar value.
Reported property: pIC50

{"Molecule": "COC1CCC(=O)c2c(O)c(-c3cc(O)c4c(c3O)C(=O)CCC4OC)cc(O)c21 (stereo not drawn)", "Number": 4.96}
{"Molecule": "CC1(C)c2[nH]c3cc(Cl)c(Cl)cc3c2C[C@@]23CN4CCC[C@]4(C[C@@H]12)C(=O)N3", "Number": 4.84}
{"Molecule": "C=CC(C)(C)[C@@]12C[C@@H]3C(=O)N4[C@H](C[C@@]5(C(C)(C)C=C)c6ccccc6N[C@@H]45)C(=O)N3[C@@H]1Nc1ccccc12", "Number": 4.82}

Cited source: ChEMBL document CHEMBL4613239
